Test: Experiment 3: pharmacokinetic evaluation in CD-1 mice (IV and oral)
Type: in vivo
Details: mouse, plasma; male CD-1 mice; single dose, oral 2 mg/kg; read-out: Peak concentration Cmax
Where a name gives a salt, the structure may show the parent alone.

MOLECULE	Cmax / nM
CC(C)(CO)n1nnc2cc(-c3sc(C(=O)N4CCC[C@@H](N)C4)cc3-c3ccc(C#N)c(F)c3)c(F)c(F)c21 [Hydrochloride of compound 99]	145
Cn1cc2cc(-c3sc(C(=O)N4CCC[C@@H](N)C4)cc3-c3ccc(C#N)c(F)c3)ccc2n1 [Hydrochloride of compound 36]	148
CN[C@@H]1CCCN(C(=O)c2cc(-c3ccc(C#N)c(F)c3)c(-c3cc4nnn(CC(C)(C)O)c4c(F)c3F)s2)C1 [Hydrochloride of compound 98]	160
CC(C)(CO)n1cc2cc(-c3sc(C(=O)N4CCC[C@@H](N)C4)cc3-c3ccc(C#N)c(F)c3)ccc2n1 [Hydrochloride of compound 87]	267
COC1CC(n2cc3cc(-c4sc(C(=O)N5CCC[C@@H](N)C5)cc4-c4ccc(C#N)c(F)c4)ccc3n2)C1 (stereo partly drawn) [Hydrochloride of compound 80]	109
COc1ccc(-c2sc(C(=O)N3CCC[C@@H](N)C3)cc2-c2ccc(C#N)c(F)c2)cc1F [Hydrochloride of compound 1]	176
